The compounds below have reported Ki for CCR3 (Homo sapiens, UniProt P51677).

compound=COc1ccc(NC(=O)N2CCN(S(=O)(=O)c3cc(C#N)ccc3Oc3cc(C)cc(C)c3)CC2)cc1 result="> 5 µM"

The compound `Cc1ccc(S(=O)(=O)N2CCN(S(=O)(=O)c3cc(C#N)ccc3Oc3cc(Cl)cc(Cl)c3)CC2)cc1` showed Ki equal to ≤ 0.05 µM

The compound `C=CNC(=O)N1CCN(S(=O)(=O)c2cc(C#N)ccc2Oc2cc(Cl)cc(Cl)c2)CC1` showed Ki equal to > 5 µM

====

Target: UniProtKB P51677
Sequence (P51677 1-355): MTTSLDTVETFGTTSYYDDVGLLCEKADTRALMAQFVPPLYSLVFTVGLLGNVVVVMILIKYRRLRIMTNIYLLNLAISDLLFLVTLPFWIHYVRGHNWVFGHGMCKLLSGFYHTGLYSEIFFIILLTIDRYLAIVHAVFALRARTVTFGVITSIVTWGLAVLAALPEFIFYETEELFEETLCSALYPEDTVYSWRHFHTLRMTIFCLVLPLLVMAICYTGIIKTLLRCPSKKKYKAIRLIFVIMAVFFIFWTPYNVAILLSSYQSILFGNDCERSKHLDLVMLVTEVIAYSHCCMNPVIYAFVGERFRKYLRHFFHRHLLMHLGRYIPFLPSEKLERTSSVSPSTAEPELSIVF
Reported property: Ki

Worked cases, answers included:
entry_smiles=CC(=O)N1CCN(S(=O)(=O)c2cc(C#N)ccc2Oc2cc(Cl)cc(Cl)c2)CC1 result="≤ 0.05 µM"
entry_smiles=N#Cc1ccc(Oc2cc(Cl)cc(Cl)c2)c(S(=O)(=O)N2CCN(C(=O)c3cccc(F)c3)CC2)c1 result="> 5 µM"
entry_smiles=Cc1cc(C)cc(Sc2ccc(C#N)cc2S(=O)(=O)N2CCN(C(=O)Nc3cccc(F)c3)CC2)c1 result="0.05 to 0.5 µM"

The compound `O=[N+]([O-])c1ccc(Sc2cc(Cl)ccc2Cl)c(S(=O)(=O)N2CCN(S(=O)(=O)c3ccc(C(F)(F)F)cc3)CC2)c1` showed Ki equal to > 5 µM

The compound `N#Cc1ccc(Oc2cc(Cl)cc(Cl)c2)c(S(=O)(=O)N2CCN(C(=O)c3nc4ccccc4s3)CC2)c1` showed Ki equal to > 5 µM

The compound `O=C(Nc1ccc([N+](=O)[O-])cc1)N1CCN(S(=O)(=O)c2cc([N+](=O)[O-])ccc2Sc2cc(Cl)ccc2Cl)CC1` showed Ki equal to > 5 µM

The compound `N#Cc1ccc(Oc2cc(Cl)cc(Cl)c2)c(S(=O)(=O)N2CCN(C(=O)Oc3ccc([N+](=O)[O-])cc3)CC2)c1` showed Ki equal to > 5 µM

====

Consider the following molecules and their measured melting point readings.

Worked cases, answers included:
molecule="CS(=O)(=O)N1CCN(S(=O)(=O)c2cc([N+](=O)[O-])ccc2Sc2cc(Cl)ccc2Cl)CC1 [Compound 202]" reported_property="melting point" result="277 to 281 °C"
molecule="Cc1ccc(C)c(Sc2ccc([N+](=O)[O-])cc2S(=O)(=O)N2CCN(C(=O)c3ccccc3)CC2)c1 [Compound 172]" reported_property="melting point" result="190 to 193 °C"
molecule="O=C(c1ccccc1)N1CCN(S(=O)(=O)c2cc([N+](=O)[O-])ccc2Oc2cc(Cl)ccc2Cl)CC1 [Compound 182]" reported_property="melting point" result="206 to 209 °C"

The record that follows has no melting point shown yet.
The molecule O=[N+]([O-])c1ccc(Sc2cc(Cl)ccc2Cl)c(S(=O)(=O)N2CCN(S(=O)(=O)c3ccc(C(F)(F)F)cc3)CC2)c1 [Compound 205] showed melting point equal to 264 to 267 °C

====

Target: CCR3 (Homo sapiens, UniProt P51677)
Sequence (P51677 1-355): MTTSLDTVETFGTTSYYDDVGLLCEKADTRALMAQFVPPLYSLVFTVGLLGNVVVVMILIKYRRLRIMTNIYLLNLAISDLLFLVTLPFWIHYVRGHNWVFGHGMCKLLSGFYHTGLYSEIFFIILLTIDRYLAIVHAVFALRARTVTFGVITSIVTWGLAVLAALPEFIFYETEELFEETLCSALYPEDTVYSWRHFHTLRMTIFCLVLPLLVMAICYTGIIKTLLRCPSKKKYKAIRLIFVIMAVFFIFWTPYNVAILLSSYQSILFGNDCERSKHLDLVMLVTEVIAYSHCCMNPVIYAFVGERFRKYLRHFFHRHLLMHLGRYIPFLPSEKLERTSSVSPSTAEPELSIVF
Reported property: Ki

Worked cases, answers included:
entry_smiles=N#Cc1ccc(Oc2cc(Cl)cc(Cl)c2)c(S(=O)(=O)N2CCN(C(=O)c3cccc(Cl)c3)CC2)c1 result="0.5 to 5 µM"
entry_smiles=CCC(=O)N1CCN(S(=O)(=O)c2cc(C#N)ccc2Oc2cc(C)cc(C)c2)CC1 result="0.5 to 5 µM"
entry_smiles=CCC(C)(C)C(=O)N1CCN(S(=O)(=O)c2cc(C#N)ccc2Oc2cc(C)cc(C)c2)CC1 result="> 5 µM"
entry_smiles=N#Cc1ccc(Oc2cc(Cl)cc(Cl)c2)c(S(=O)(=O)N2CCN(C(=S)NCCN3CCOCC3)CC2)c1 result="0.05 to 0.5 µM"

The compound `N#Cc1ccc(Oc2cc(Cl)cc(Cl)c2)c(S(=O)(=O)N2CCN(C(=O)c3ccccc3)CC2)c1` showed Ki equal to ≤ 0.05 µM

The compound `N#Cc1ccc(Oc2cc(Cl)cc(Cl)c2)c(S(=O)(=O)N2CCN(C(=O)NCc3ccco3)CC2)c1` showed Ki equal to ≤ 0.05 µM

The compound `N#Cc1ccc(Oc2cc(Cl)cc(Cl)c2)c(S(=O)(=O)N2CCN(C(=O)c3ccc(C(F)(F)F)cc3)CC2)c1` showed Ki equal to > 5 µM

The compound `Cc1cc(C)cc(Oc2ccc(C#N)cc2S(=O)(=O)N2CCN(C(=O)CC(C)(C)C)CC2)c1` showed Ki equal to > 5 µM

The compound `CCN(CC)C(=O)N1CCN(S(=O)(=O)c2cc(C#N)ccc2Oc2cc(C)cc(C)c2)CC1` showed Ki equal to > 5 µM

The compound `N/C(=N\[N+](=O)[O-])N1CCN(S(=O)(=O)c2cc([N+](=O)[O-])ccc2Oc2cc(Cl)cc(Cl)c2)CC1` showed Ki equal to > 5 µM

====

Target: CCR3 (Homo sapiens, UniProt P51677)
Sequence (P51677 1-355): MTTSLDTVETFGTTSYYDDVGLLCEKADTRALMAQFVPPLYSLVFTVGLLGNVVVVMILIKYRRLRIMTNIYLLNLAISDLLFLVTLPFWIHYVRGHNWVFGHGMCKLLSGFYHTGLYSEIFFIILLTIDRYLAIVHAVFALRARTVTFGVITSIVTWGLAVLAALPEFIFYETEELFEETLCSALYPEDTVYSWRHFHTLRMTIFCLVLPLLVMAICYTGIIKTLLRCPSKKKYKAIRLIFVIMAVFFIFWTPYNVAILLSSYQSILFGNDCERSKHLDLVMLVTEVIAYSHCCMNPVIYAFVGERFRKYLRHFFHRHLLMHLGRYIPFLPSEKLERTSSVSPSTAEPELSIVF
Reported property: Ki

Worked cases, answers included:
entry_smiles=CC(C)CC(=O)N1CCN(S(=O)(=O)c2cc([N+](=O)[O-])ccc2Oc2cc(Cl)ccc2Cl)CC1 result="> 5 µM"
entry_smiles=N#Cc1ccc(Oc2cc(Cl)cc(Cl)c2)c(S(=O)(=O)N2CCN(C(=O)c3ccccn3)CC2)c1 result="0.5 to 5 µM"
entry_smiles=Cc1cc(C)cc(Oc2ccc(C#N)cc2S(=O)(=O)N2CCN(C(=O)c3ccccc3)CC2)c1 result="> 5 µM"
entry_smiles=CC(=O)N1CCN(S(=O)(=O)c2cc(C#N)ccc2Sc2cc(Cl)cc(Cl)c2)CC1 result="≤ 0.05 µM"

The compound `Cc1cccc(C(=O)N2CCN(S(=O)(=O)c3cc(C#N)ccc3Sc3cc(Cl)cc(Cl)c3)CC2)c1` showed Ki equal to > 5 µM

====

Molecular target: UniProt:P51677
Sequence (P51677 1-355): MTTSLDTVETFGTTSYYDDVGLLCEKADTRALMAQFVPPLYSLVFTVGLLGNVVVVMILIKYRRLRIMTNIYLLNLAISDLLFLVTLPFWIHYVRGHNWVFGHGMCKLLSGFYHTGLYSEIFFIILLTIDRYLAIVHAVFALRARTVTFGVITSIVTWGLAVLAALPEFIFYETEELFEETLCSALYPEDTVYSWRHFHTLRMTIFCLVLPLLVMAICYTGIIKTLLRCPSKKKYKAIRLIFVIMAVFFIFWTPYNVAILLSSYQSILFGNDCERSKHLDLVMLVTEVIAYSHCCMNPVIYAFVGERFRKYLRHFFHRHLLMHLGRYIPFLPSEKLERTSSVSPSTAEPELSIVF
Reported property: Ki

compound="Cc1ccccc1C(=O)N1CCN(S(=O)(=O)c2cc(C#N)ccc2Oc2cc(Cl)cc(Cl)c2)CC1 [Compound 83]" result="0.5 to 5 µM"
compound="COc1ccc(C(=O)N2CCN(S(=O)(=O)c3cc([N+](=O)[O-])ccc3Sc3cc(Cl)ccc3Cl)CC2)cc1 [Compound 165]" result="> 5 µM"

The record that follows has no Ki shown yet.
The compound Cc1ccccc1C(=O)N1CCN(S(=O)(=O)c2cc(C#N)ccc2Sc2cc(Cl)cc(Cl)c2)CC1 [Compound 106] showed Ki equal to > 5 µM
